Listing: pKi of selected compounds
# assaySystem: UniProt:Q99572
# Sequence (Q99572 whole entry): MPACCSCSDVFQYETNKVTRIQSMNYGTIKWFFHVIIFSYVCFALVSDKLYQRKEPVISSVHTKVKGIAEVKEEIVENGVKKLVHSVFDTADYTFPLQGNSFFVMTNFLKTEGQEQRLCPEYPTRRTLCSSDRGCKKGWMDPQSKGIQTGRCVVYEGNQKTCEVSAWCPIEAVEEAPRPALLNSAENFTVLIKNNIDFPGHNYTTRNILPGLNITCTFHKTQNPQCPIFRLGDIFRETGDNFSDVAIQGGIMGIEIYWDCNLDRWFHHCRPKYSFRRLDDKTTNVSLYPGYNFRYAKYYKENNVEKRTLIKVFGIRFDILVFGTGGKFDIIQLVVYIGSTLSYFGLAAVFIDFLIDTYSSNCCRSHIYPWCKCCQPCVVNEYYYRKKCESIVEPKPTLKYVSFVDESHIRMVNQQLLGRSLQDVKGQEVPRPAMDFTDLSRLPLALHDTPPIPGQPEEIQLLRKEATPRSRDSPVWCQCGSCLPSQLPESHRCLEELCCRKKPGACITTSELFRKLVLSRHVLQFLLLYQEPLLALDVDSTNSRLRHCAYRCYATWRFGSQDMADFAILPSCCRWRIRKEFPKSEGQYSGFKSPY
# assayComment: Competitive displacement of [11C]GSK1482160 from human recombinant P2X7 receptor expressed in HEK293 cell membranes incubated for 30 mins by scintillation counting method based radioligand competitive binding assay
Scale explanation: pKi corresponds to minus log10 of a concentration expressed in moles per litre.

CN1C(=O)CC[C@H]1C(=O)NCc1cccc(C(F)(F)F)c1I : 8.72

Asked: // pKi lookup, key: CN1C(=O)CC[C@H]1C(=O)NCc1cccc(C(F)(F)F)c1Cl [GSK1482160]
Given back: 8.51

Asked: // pKi lookup, key: CN1C(=O)CC[C@H]1C(=O)NCc1cccc(C(F)(F)F)c1Br
Given back: 8.60

Asked: // pKi lookup, key: CN1C(=O)CC[C@H]1C(=O)NCc1cccc(C(F)(F)F)c1F
Given back: 7.27
